- Test system: Diamond Back Moth (Plutella xylostella)
- RUN DESCRIPTION: Action on diamond back moth, cabbage leaf dip
- Assay type: in vivo
- SETUP CONDITIONS: foliar, 3rd instar larvae, 72 hours after treatment, read-out: mortality in comparison with untreated controls
QUANTITY: mortality at 500 ppm

INSERT INTO results (compound, quantity, value_observed) VALUES
  ('CC(C)c1ccccc1N1C(=O)CS/C1=N\N=C\c1ccc2c(/C=N/c3ccc(OC(F)(F)F)cc3)nn(C)c2c1 [Example C-25]', 'mortality at 500 ppm', '≥ 75%'),
  ('CC(C)c1ccccc1N1CCS/C1=N\N=C\c1ccc2c(C(=N)Nc3ccc(OC(F)(F)F)cc3)nn(C)c2c1 [Example C-36]', 'mortality at 500 ppm', '≥ 75%'),
  ('CC(C)c1ccccc1N1C(=O)CS/C1=N/N=C/c1ccc2c(C(=N)Nc3ccc(OC(F)(F)F)cc3)nn(C)c2c1 [Example C-2]', 'mortality at 500 ppm', '≥ 75%'),
  ('CC(C)c1ccccc1NC(=S)N/N=C/c1ccc2c(/C=N/c3ccc(OC(F)(F)F)cc3)nn(C)c2c1 [Example C-24]', 'mortality at 500 ppm', '≥ 75%'),
  ('CC(C)c1ccccc1NC(=S)N/N=C/c1ccc2c(/C(N)=N/c3ccc(OC(F)(F)F)cc3)nsc2c1 [Example C-20]', 'mortality at 500 ppm', '≥ 75%'),
  ('C/N=C(/c1nn(C)c2cc(/C=N/NC(=S)Nc3ccccc3C(C)C)ccc12)N(C)c1ccc(OC(F)(F)F)cc1 [Example C-3]', 'mortality at 500 ppm', '≥ 75%'),
  ('CO[C@@H]1[C@@H](OC)[C@H](C)O[C@@H](OC(=O)Nc2ccc3c(C(=S)N(C)c4ccc(OC(F)(F)F)cc4)nn(C)c3c2)[C@@H]1OC [Example C-4]', 'mortality at 500 ppm', '≥ 75%');

----------
A collection of compounds and their measured mortality at 500 ppm
- Test system: Diamond Back Moth (Plutella xylostella)
- RUN DESCRIPTION: Action on diamond back moth, cabbage leaf dip
- Assay type: in vivo
- SETUP CONDITIONS: foliar, 3rd instar larvae, 72 hours after treatment, read-out: mortality in comparison with untreated controls
QUANTITY: mortality at 500 ppm

INSERT INTO assay_data (compound, target_or_system, value_observed) VALUES
  ('CSC(=N/N=C/c1ccc2c(C(=N)Nc3ccc(OC(F)(F)F)cc3)nn(C)c2c1)Nc1ccccc1C(C)C [Example C-35]', 'Diamond Back Moth (Plutella xylostella)', '≥ 75%'),
  ('CC(C)c1ccccc1N1C(=O)CS/C1=N\N=C\c1ccc2c(NC(=N)c3ccc(OC(F)(F)F)cc3)nn(C)c2c1 [Example C-39]', 'Diamond Back Moth (Plutella xylostella)', '≥ 75%'),
  ('CON=C(Nc1ccc(OC(F)(F)F)cc1)c1nn(C)c2cc(/C=N/N=C3\SC(=O)CN3c3ccccc3C(C)C)ccc12 [Example C-6]', 'Diamond Back Moth (Plutella xylostella)', '≥ 75%'),
  ('CC(C)c1ccccc1N1C(=O)CS/C1=N\N=C\c1ccc2c(C(N)=Nc3ccc(OC(F)(F)F)cc3)nsc2c1 [Example C-21]', 'Diamond Back Moth (Plutella xylostella)', '≥ 75%'),
  ('CC(C)c1ccccc1NC(=S)N/N=C/c1ccc2c(NC(=N)c3ccc(OC(F)(F)F)cc3)nn(C)c2c1 [Example C-38]', 'Diamond Back Moth (Plutella xylostella)', '≥ 75%'),
  ('CC(C)c1ccccc1/N=C1\SCC(=O)N1/N=C/c1ccc2c(C(N)=Nc3ccc(OC(F)(F)F)cc3)nsc2c1 [Example C-28]', 'Diamond Back Moth (Plutella xylostella)', '≥ 75%'),
  ('CC(C)c1ccccc1N1CCCS/C1=N\N=C\c1ccc2c(C(=N)Nc3ccc(OC(F)(F)F)cc3)nn(C)c2c1 [Example C-37]', 'Diamond Back Moth (Plutella xylostella)', '≥ 75%'),
  ('CC(C)c1ccccc1NC(=S)N/N=C/c1ccc2c(C(=N)Nc3ccc(OC(F)(F)F)cc3)nn(C)c2n1 [Example C-26]', 'Diamond Back Moth (Plutella xylostella)', '≥ 75%'),
  ('CC(C)c1ccccc1NC(=S)N/N=C/c1ccc2c(C(=N)Nc3ccc(OC(F)(F)F)cc3)nn(C)c2c1 [Example C-1]', 'Diamond Back Moth (Plutella xylostella)', '≥ 75%'),
  ('CC(C)c1ccccc1N1C(=O)CS/C1=N\N=C\c1ccc2c(C(=N)Nc3ccc(OC(F)(F)F)cc3)nn(C)c2n1 [Example C-27]', 'Diamond Back Moth (Plutella xylostella)', '≥ 75%');
